Source: patent US11981951B2

# Protocol: Solubility limit in the fermentation medium
# Format: physicochemical
# Condition Set: plasma or biological fluid
# Protocol: In embodiments where the C3-C12 methacrylate ester is butyl methacrylate, it is particularly preferred that the titre of butyl methacrylate in the fermentation medium is at least 120, 130, 140, 150 or 200 mg/l. […] At such a concentration, the need for an additional extraction solvent may be negated.
Property Measured: solubility

In [3]: df
Out[3]:
                                   compound  property_measured  value_reported
0  C=C(C)C(=O)OCCCC [BMA, butyl methacrylate]         solubility      ~220 µg/mL
